- assay explanation: NCI Yeast Anticancer Drug Screen. Data for the rad50 strain (AID 155);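 further: 0% = growth of vehicle-only cultures of the same strain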
- condition context: S. cerevisiae rad50 strain growth inhibition; at 5.0 µM (retest, dose inferred, filed as 0.5); active compounds read high
Compounds without any hit were thinned out: in the full panel of roughly 79,000, 15% have a hit.
Outcome label depends on growth inhibition relative to 30%: at/above gives class 1, below gives class 0.

- CC1(O)Cc2c(O)c3c(c(O)c2CC1O)C(=O)C=CC3=O (stereo not drawn): class 0
- C=CCN(CC=C)C(CC(=O)C(C)(C)C)=NCC: class 0
- COc1ccc(COc2ccc(C(=O)CCN3CCOCC3)cc2)cc1: class 1
- CC(C)CC(Nc1c(O)ccc2ccccc12)C(=O)O (stereo not drawn): class 0
- COC(=O)C(CC(C)=O)CS(=O)(=O)CC(=O)C(=O)Nc1cccc([N+](=O)[O-])c1 (stereo not drawn): class 0
- O=C(O)C1(Cc2ccccc2)Cc2cc3c(cc2C1)CCC3: class 0
- Clc1ccc(CN2CCCN(Cc3ccc(Cl)cc3)C2c2cc3ccccc3c3ccccc23)cc1: class 1
- O=C1Nc2ccccc2C1(O)C/C(=N/O)c1ccc2ccccc2c1 (stereo not drawn): class 1
- Cc1n(Cc2ccccc2)c2c([n+]1C)C(=O)c1ccccc1C2=O: class 1
- O=C1C=C(O)c2ccccc2C1=O.[Ag]: class 1
- CCCCCCCCCCCCc1ccc(S(=O)(=O)O)cc1.[Cu+2]: class 0
- COc1cc2c(c3c1/c(=N/N(C)C)c1ccccc1n3C)C=CC(C)(C)O2: class 0
- CC(NNC(=S)N1CCN(c2ccccn2)CC1)c1nccc2ccccc12 (stereo not drawn): class 0
- NC(=O)NC(=O)C(Cc1ccc(Cl)cc1)c1ccccc1 (stereo not drawn): class 0
- CC(C)(C)OC(=O)NCCc1cccc2c1oc1c(CCC(=O)O)cccc12: class 0
- Nc1nc(=S)c2ncn(C3OC(CO)C(O)C3O)c2[nH]1 (stereo not drawn): class 1
- O=C1C=CC(=O)C(c2ccc3ccccc3c2)=C1: class 1
- CCN(CC)CCCn1c2cc(=O)c(=O)cc-2[nH]c2cc(C)ccc21: class 0
- O=C(O)c1ccccc1C(=O)O: class 0
- OC1CCC(O)CC1 (stereo not drawn): class 0
- c1ccc(C2=NC(c3ccccc3)=NS(S3=NC(c4ccccc4)=NC(c4ccccc4)=N3)=N2)cc1 (stereo not drawn): class 0
- COC1C(O)C(C)OC(OC2C(Oc3cccc4c(O)c5c(=O)oc6ccc(C)c7c(=O)oc(c34)c5c67)OC(C)C3O[C@H](c4ccccc4)OC32)C1O (stereo partly drawn): class 1
- OC(c1ccccc1)(c1ccccc1)c1ccccc1 (tested in a mixture with another compound): class 0

====

- assay explanation: NCI Yeast Anticancer Drug Screen. Data for the mec2-1 strain (AID 157)
- condition context: S. cerevisiae mec2-1 strain, at 50.0 µM, active compounds read high
Compounds without any hit were thinned out: in the full panel of roughly 79,000, 15% have a hit.
Record condition met whenever growth inhibition is at 60% or higher; record condition not met when lower.

• O=C1CSC(=S)N1c1ccc(Cl)c(C(F)(F)F)c1 = condition met
• Cc1ccc(C(C)C)c2c1CN(CCN1COc3c(C(C)C)ccc(C)c3C1)CO2 = condition not met
• N#Cc1c(/N=C/c2ccccc2Cl)sc2c1CCC2 = condition not met
• CN(C)CCCN=c1c2ccccc2n(O)c2cccc([N+](=O)[O-])c12 = condition not met

====

- assay explanation: NCI Yeast Anticancer Drug Screen. Data for the mlh1 rad18 strain (AID 175)
- condition context: S. cerevisiae mlh1 rad18 strain growth inhibition; at 5.0 µM (retest, dose inferred, filed as 0.5); active compounds read high
About 79,000 compounds went through this panel and 15% of them were active in at least one assay; those are over-represented in the sample as a whole.
growth inhibition: recorded values
parameter: growth inhibition (%)

- N#Cc1c(/N=C/c2ccccc2Cl)sc2c1CCC2: -1
- O=C(NNC(=O)c1ccccc1O)c1ccccc1O: 5
- Cc1nnc(S(=O)(=O)c2ccc(N=Nc3c(N)nc(N)nc3N)cc2)s1: 11
- Nc1ccc2c(ccc3ccc4ccccc4c32)c1: 17
- O=C1C(Cl)=C(N2CCN(C3=C(Cl)C(=O)c4ccccc4C3=O)CC2)C(=O)c2ccccc21: 26
- CCN(CC)Cc1cc2[nH]c3c4ccc(Cl)cc4ncc3c2cc1OC (tested in a mixture with another compound): 3
- c1ccc(C(c2ccccc2)n2ccnc2)cc1: -72
- COc1ccc2nc(C)cc(NCCCCCCCCCNc3cc(C)nc4ccc(OC)cc34)c2c1: -21
- Cc1cc(NCCCCCCCNc2cc(C)nc3cc([N+](=O)[O-])ccc23)c2ccc([N+](=O)[O-])cc2n1: 5
- N#CCCC(CCC#N)(CCC#N)C(=O)c1ccccc1: 20
- CC[N](CC)[Ge]([CH2]C)[CH2]C.C[CH2][Ge]([CH2]C)[CH2]C: 37
- C/C(=N\NC(=S)N1CCN(c2ccccn2)CC1)c1nccs1: 38
- O=c1cc[nH]cc1: 0
- CC12CCC3c4ccc(O)cc4CCC3C1CCC2S (centres undefined): -26
- CN(CCN1C(=O)c2cccc3cccc(c23)C1=O)CCN1C(=O)c2cccc3cccc(c23)C1=O: 47
- CCOC(=O)C1=C(C(=O)c2ccc(OC)cc2)C(c2c(Cl)cccc2Cl)C(C(=O)c2ccc(OC)cc2)=C(C(=O)OCC)N1: 6
- O=C1OC2=C(c3ccccc3)CCCC2C1=O (centres undefined): 0
- CCOc1ccc2ccccc2c1C(Cc1ccc(Cl)cc1)NCCO (centres undefined): 1
- CC(C)CC(Nc1c(O)ccc2ccccc12)C(=O)O (centres undefined): 45
- NNc1ccc2ccccc2c1: 33
- Cc1ccc(C(C)C)c2c1CN(CCN1COc3c(C(C)C)ccc(C)c3C1)CO2: -1
- COc1cccc(OCCC#N)c1: 4
- CCN(CC)C(=S)Sc1nc2ccccc2s1: 5
- Nc1nnc(/C=C/c2ccccc2)o1: 7
- CCCCCCCCCCCC(=O)CN1CCOCC1: 31
- c1ccc(-c2conc2-c2ccccc2)cc1: -10
- OCC(O)C(O)C(O)C(/C=N/Nc1ccccc1)=N/Nc1ccccc1 (centres undefined): 20
- COC(=O)[C@]1(C)CCC[C@]2(C)c3cc(C(C)=O)c(C(C)C)cc3CC[C@@H]12: -2
- CCCCCCCCCCCCCCCCCCOCC(COP(=O)([O-])OCC[N+](C)(C)C)OC (centres undefined): -59
- CC[C@](O)(CC(=O)O[C@H]1C(=O)O[C@@H]2C[C@H]3C(C)=CC(=O)[C@@H](O)[C@]3(C)[C@H]3[C@@]4(O)OC[C@]32[C@@H]1[C@@H](C)[C@H]4O)C(C)C: 50
- CC1=C(C(=O)Nc2c(C)cccc2C)C(c2ccc3c(c2)OCO3)C(C(=O)Nc2c(C)cccc2C)=C(C)N1: 7
- C1=C(c2ccccc2)N(CCc2ccccc2)C(c2ccccc2)=CN1Cc1ccccc1: -4
- CC(=O)NC1CCC(C2CCCCC2)CC1C1CCCCC1 (centres undefined): -1
- Cc1nc2ccccc2cc1CCl: -122
- COc1cc(C2C(C#N)=C(C)Nc3nc(N)nc(N)c32)cc(OC)c1OC (centres undefined): -1
- Nc1ncnc2c(C3OC(CO)C(O)C3O)scc12 (centres undefined): 14
- Oc1ccc(/C=N/NC(=S)NN2CCOCC2)nc1: 42
- O=C1C=CC(=O)c2c1ccc1c3ccccc3n(Cc3ccccc3)c21: 47
- O=S(=O)(CC(Cl)c1ccccc1)c1nc2ccccc2s1 (centres undefined): -13
- CN(C)CCC(=O)c1cccc([N+](=O)[O-])c1: 11
- O=C1c2cc3c(cc2CC12Cc1ccccc1C2)CCC3: 19
- CCO/C(=C\C=O)C1CCC2C3CC=C4CC(OC(C)=O)CCC4(C)C3CCC12C (centres undefined): 14
- COc1cccc2c1C(=O)c1c(O)c3c(c(O)c1C2=O)C[C@@](O)(C(C)=O)C[C@@H]3OC1CC(N)C(O)C(C)O1 (some centres undefined): 7
- Nc1ccc(Cn2ccc3c4c(N)nc(N)nc4ccc32)cc1: 13

====

- assay explanation: NCI Yeast Anticancer Drug Screen. Data for the rad50 strain (AID 155);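 further: 0% = growth of vehicle-only cultures of the same strain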
- condition context: S. cerevisiae rad50 strain growth inhibition; at 5.0 µM (retest, dose inferred, filed as 0.5); active compounds read high
The panel holds about 79,000 compounds, 15% with a hit somewhere; the sample as a whole holds those more often.
parameter: growth inhibition (%)

* CCCn1cnc2c(SCc3ccc(Cl)cc3)nc(N)nc21 | -7
* Nc1ncnc2c(C3OC(CO)C(O)C3O)scc12 (centres undefined) | 12
* CCCCCCCCCCCC(=O)CN1CCOCC1 | 34
* O=C1OC(c2ccccc2)C(c2ccccc2)=C1c1ccccc1 (centres undefined) | -21
* ON=C(Cc1ccccc1)Cc1ccccc1 | 7
* NC(CCCCNC(=O)c1ccccc1)C(=O)O (centres undefined) | -1
* CCN(CC)CCOc1ccc2c(C)c(-c3ccccc3)c(=O)oc2c1 | 0
* CCC1CCCC(=O)C1 (centres undefined) | 2
* CCCCCCCCCCCCCCCCCC(=O)OC(Cc1ccccc1)C(=O)O (centres undefined) | 1
* Nc1c(C(=O)O)ccc(C(=O)O)c1C(=O)O | -131
* O=S(c1cc(Cl)cc(Cl)c1O)c1cc(Cl)cc(Cl)c1O | 66
* COc1ccccc1NC(=O)C(/C=N/C(=S)NCCNc1ccc(OC)c(OC)c1)=C(\C)O | 1
* O=[N+]([O-])c1c(Br)cc(Br)c2c1Nc1c(ccc(Cl)c1Cl)S2 | 14
* C=CCC(O)c1ccc(C(C)C)cc1 (centres undefined) | 3
* OC1CC2CCCC(C1)C2 (centres undefined) | -2
* CC(C)(C)c1ccc(-c2c3ccccc3cc3ccccc23)cc1 | -1
* [N-]=[N+]=NC(=O)Nc1cccc(C(F)(F)F)c1 | 8
* COC1/C=C/OC2(C)Oc3c(C)c(O)c4c(c3C2=O)C(=O)C=C(NC(=O)/C(C)=C\C=C\C(C)C2OC(C)(C)OC(C2C)C(C)C(OC(C)=O)C1C)C4=O (centres undefined) | 2
* OCC(O)C(O)C(O)C(O)C(/C=N/Nc1ccccc1)=N/Nc1ccccc1 (centres undefined) | -19
* CCN(CC)Cc1cc2[nH]c3c4ccc(Cl)cc4ncc3c2cc1OC (tested in a mixture with another compound) | 3
* CC(C)N1CSC(=S)N(Cc2ccccc2)C1 | 55
* CCO/C=C1\SC(=S)N(c2cccc(O)c2)C1=O | 57
* O=C(/C=C/c1cccnc1)c1ccccc1 | 2
* Nc1nccnc1C(=O)O | -166
